Assayed System: GABAB receptor (Rattus norvegicus, UniProt O88871+Q9Z0U4)
Sequence (O88871 41-940): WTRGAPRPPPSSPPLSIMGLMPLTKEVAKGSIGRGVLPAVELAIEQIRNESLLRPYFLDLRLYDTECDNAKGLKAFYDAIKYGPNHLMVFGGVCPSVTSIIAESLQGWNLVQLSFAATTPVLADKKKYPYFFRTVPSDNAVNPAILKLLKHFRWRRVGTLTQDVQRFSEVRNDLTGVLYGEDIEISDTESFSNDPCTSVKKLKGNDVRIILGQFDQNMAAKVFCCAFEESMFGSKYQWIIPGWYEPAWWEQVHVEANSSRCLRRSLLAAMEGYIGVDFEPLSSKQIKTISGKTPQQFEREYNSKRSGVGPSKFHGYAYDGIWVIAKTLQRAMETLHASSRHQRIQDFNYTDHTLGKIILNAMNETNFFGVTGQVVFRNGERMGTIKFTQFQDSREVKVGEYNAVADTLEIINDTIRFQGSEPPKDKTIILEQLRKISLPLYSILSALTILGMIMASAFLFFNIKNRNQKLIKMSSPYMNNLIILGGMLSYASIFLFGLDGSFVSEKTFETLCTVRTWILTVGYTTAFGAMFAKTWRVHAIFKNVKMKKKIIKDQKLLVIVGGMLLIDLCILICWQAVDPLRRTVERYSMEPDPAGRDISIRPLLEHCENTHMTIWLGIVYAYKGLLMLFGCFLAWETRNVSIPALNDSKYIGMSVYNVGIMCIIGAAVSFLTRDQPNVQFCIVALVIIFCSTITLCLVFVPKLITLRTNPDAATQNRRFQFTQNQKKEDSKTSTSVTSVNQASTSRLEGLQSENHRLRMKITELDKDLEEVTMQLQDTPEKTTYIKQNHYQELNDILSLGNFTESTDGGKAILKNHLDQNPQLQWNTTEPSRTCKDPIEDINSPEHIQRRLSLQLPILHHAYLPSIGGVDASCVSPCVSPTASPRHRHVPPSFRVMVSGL
Sequence (Q9Z0U4 17-960 limits assumed): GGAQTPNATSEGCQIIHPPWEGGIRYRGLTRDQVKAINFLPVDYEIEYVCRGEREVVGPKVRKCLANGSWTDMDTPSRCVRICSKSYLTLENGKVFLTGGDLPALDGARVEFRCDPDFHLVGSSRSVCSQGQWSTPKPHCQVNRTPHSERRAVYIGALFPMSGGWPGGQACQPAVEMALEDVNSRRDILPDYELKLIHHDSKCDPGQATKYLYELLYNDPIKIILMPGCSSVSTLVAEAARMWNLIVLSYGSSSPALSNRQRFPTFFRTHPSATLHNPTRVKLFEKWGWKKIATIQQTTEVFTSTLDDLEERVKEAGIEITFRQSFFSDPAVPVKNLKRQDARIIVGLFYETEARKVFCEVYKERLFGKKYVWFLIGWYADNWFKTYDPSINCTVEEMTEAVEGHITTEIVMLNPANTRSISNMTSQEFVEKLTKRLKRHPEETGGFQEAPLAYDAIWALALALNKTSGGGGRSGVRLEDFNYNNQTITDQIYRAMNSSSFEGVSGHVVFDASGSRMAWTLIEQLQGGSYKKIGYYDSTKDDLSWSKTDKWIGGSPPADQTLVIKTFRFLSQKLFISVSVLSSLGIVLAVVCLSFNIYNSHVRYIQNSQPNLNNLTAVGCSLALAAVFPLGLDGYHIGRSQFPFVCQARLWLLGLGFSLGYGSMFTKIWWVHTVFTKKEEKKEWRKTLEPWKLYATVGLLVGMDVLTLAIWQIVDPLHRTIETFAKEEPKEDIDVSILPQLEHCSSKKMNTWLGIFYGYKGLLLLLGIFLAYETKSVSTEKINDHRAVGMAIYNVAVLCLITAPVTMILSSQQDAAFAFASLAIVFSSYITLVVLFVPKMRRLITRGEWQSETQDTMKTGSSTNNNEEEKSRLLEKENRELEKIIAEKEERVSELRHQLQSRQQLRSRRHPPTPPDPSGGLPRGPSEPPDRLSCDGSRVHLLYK
Run Description: In vitro [35S]GTPγS binding assay in rat cortical membranes
Conditions: PAM EC50, [35S]GTPγS binding, read-out: In vitro PAM potency
Quantity Kind: EC50

Supply reported EC50 belonging to this compound: CCCC1(C(=O)O)CCCN(c2c(C(C)C)c(C)nc3cc([C@H]4CC[C@H](C(F)(F)F)CC4)nn23)C1 (single isomer, unassigned) [Example 4]
1 to 10 nM

Supply reported EC50 belonging to this compound: CC[C@]1(C(=O)O)CCCN(c2c(C(C)C)c(C)nc3cc(C4CCC(F)(F)CC4)nn23)C1 [Example 31]
10 to 100 nM

Supply reported EC50 belonging to this compound: CCc1c(C)nc2cc([C@H]3CC[C@H](C(F)(F)F)CC3)nn2c1N1CCC[C@@](CC)(C(=O)O)C1 [Example 28]
10 to 100 nM

Supply reported EC50 belonging to this compound: C[C@@]1(C(=O)O)CCCN(c2c3c(nc4cc([C@H]5CC[C@H](C(F)(F)F)CC5)nn24)CCCC3)C1 [Example 34]
1 to 10 nM

Supply reported EC50 belonging to this compound: CC[C@]1(C(=O)O)CCCN(c2c(OC)c(C)nc3c(F)c([C@H]4CC[C@H](C(F)(F)F)CC4)nn23)C1 (single isomer, unassigned) [Example 25]
10 to 100 nM

Supply reported EC50 belonging to this compound: Cc1nc2cc([C@H]3CC[C@H](C(F)(F)F)CC3)nn2c(N2CCC[C@@](C(=O)O)(C(C)C)C2)c1C(C)C [Example 14]
1 to 10 nM

Supply reported EC50 belonging to this compound: C[C@]1(C(=O)O)CCCN(c2c3c(nc4cc([C@H]5CC[C@H](C(F)(F)F)CC5)nn24)COCC3)C1 [Example 37]
100 to 1000 nM

----------
Run Description: Plasma and brain levels after the USV assay
Type: in vivo, rat
Conditions: 1 mg/kg per os, approximately 75 min after treatment, rat brain
Procedure: Under stressful conditions, adult rats emit 22 kHz ultrasounds that can be reduced by various pharmacological treatments (De Vry et al, Eur. J. Pharmacol. 1993, 249, 331-339; Sanchez, Eur. J. Pharmacol. 2003, 463, 133-143). […] Vocalizations were measured right after the last footshock for 10 min with a Metris Sonotrack system and the total time of vocalizations was registered. […] In Table 2 compounds of this invention measured in the USV assay are listed. […]
Would you mind telling me the reported brain exposure at 1 mg/kg of each entry?
Write the value in ng/g as a bare number.

Supply reported brain exposure at 1 mg/kg belonging to this compound: CC[C@]1(C(=O)O)CCCN(c2c(C(C)C)c(C)nc3cc([C@H]4CC[C@H](C(F)(F)F)CC4)nn23)C1 (single isomer, unassigned)
62

Supply reported brain exposure at 1 mg/kg belonging to this compound: CC[C@@]1(C(=O)O)CCCN(c2c(C(C)C)c(C)nc3c(F)c([C@H]4CC[C@H](C(F)(F)F)CC4)nn23)C1 (single isomer, unassigned)
30

Supply reported brain exposure at 1 mg/kg belonging to this compound: CC[C@@]1(C(=O)O)CCCN(c2c(C(C)C)c(C)nc3cc([C@H]4CC[C@H](C(F)(F)F)CC4)nn23)C1 (single isomer, unassigned)
31

Supply reported brain exposure at 1 mg/kg belonging to this compound: CCc1nc2cc([C@H]3CC[C@H](C(F)(F)F)CC3)nn2c(N2CCC[C@@](C)(C(=O)O)C2)c1CC
34

Supply reported brain exposure at 1 mg/kg belonging to this compound: Cc1nc2c(F)c([C@H]3CC[C@H](C(F)(F)F)CC3)nn2c(N2CCC[C@](C)(C(=O)O)C2)c1C(C)C (single isomer, unassigned)
53

----------
Assayed System: GABAB receptor (Rattus norvegicus, UniProt O88871+Q9Z0U4)
Run Description: In vitro [35S]GTPγS binding assay in rat cortical membranes
Conditions: PAM EC50, [35S]GTPγS binding, read-out: In vitro PAM potency
pEC50: −log10 of the molar value.
Would you mind telling me the reported pEC50 of each entry?

Supply reported pEC50 belonging to this molecule: CC[C@@]1(C(=O)O)CCCN(c2c(OC)c(C)nc3cc([C@H]4CC[C@H](C(F)(F)F)CC4)nn23)C1 [Example 22]
6.00 to 7.00

Supply reported pEC50 belonging to this molecule: CC[C@]1(C(=O)O)CCCN(c2c(C(C)C)c(C)nc3cc([C@H]4CC[C@H](C(F)(F)F)CC4)nn23)C1 (single isomer, unassigned) [Example 12]
8.00 to 9.00

Supply reported pEC50 belonging to this molecule: C[C@@]1(C(=O)O)CCCN(c2c3c(nc4cc([C@H]5CC[C@H](C(F)(F)F)CC5)nn24)CCCCC3)C1 [Example 35]
8.00 to 9.00

Supply reported pEC50 belonging to this molecule: CC[C@@]1(C(=O)O)CCCN(c2c(C(C)C)c(C)nc3cc(C4CCC(F)(F)CC4)nn23)C1 (single isomer, unassigned) [Example 32]
7.00 to 8.00

----------
Would you mind telling me the reported EC50 of each entry?
Assayed System: GABAB receptor (Rattus norvegicus, UniProt O88871+Q9Z0U4)
Run Description: In vitro [35S]GTPγS binding assay in rat cortical membranes
Conditions: PAM EC50, [35S]GTPγS binding, read-out: In vitro PAM potency

Supply reported EC50 belonging to this compound: COc1c(C)nc2c(F)c([C@H]3CC[C@H](C(F)(F)F)CC3)nn2c1N1CCC[C@@](C)(C(=O)O)C1 (single isomer, unassigned)
10 to 100 nM

Supply reported EC50 belonging to this compound: CCc1c(C)nc2cc([C@H]3CC[C@H](C(F)(F)F)CC3)nn2c1N1CCC[C@@](C)(C(=O)O)C1
1 to 10 nM

Supply reported EC50 belonging to this compound: C[C@]1(C(=O)O)CCCN(c2c3c(nc4cc([C@H]5CC[C@H](C(F)(F)F)CC5)nn24)CCOC3)C1
100 to 1000 nM

Supply reported EC50 belonging to this compound: Cc1nc2c(F)c([C@H]3CC[C@H](C(F)(F)F)CC3)nn2c(N2CCC[C@@](C)(C(=O)O)C2)c1C(C)C (single isomer, unassigned)
< 1 nM

Supply reported EC50 belonging to this compound: Cc1nc2cc([C@H]3CC[C@H](C(F)(F)F)CC3)nn2c(N2CCC[C@](C)(C(=O)O)C2)c1C(C)C
1 to 10 nM

Supply reported EC50 belonging to this compound: Cc1nc2cc([C@H]3CC[C@H](C(F)(F)F)CC3)nn2c(N2CCCC(CF)(C(=O)O)C2)c1C(C)C (single isomer, unassigned) [Example 6]
1 to 10 nM

Supply reported EC50 belonging to this compound: COc1c(C)nc2c(F)c([C@H]3CC[C@H](C(F)(F)F)CC3)nn2c1N1CCC[C@](C)(C(=O)O)C1 (single isomer, unassigned)
1 to 10 nM

Supply reported EC50 belonging to this compound: Cc1nc2c(F)c(C3CCC(F)(F)CC3)nn2c(N2CCC[C@@](C)(C(=O)O)C2)c1C(C)C
1 to 10 nM

Supply reported EC50 belonging to this compound: Cc1nc2cc([C@H]3CC[C@H](C(F)(F)F)CC3)nn2c(N2CCC[C@H](C(=O)O)C2)c1C(C)C
1 to 10 nM

Supply reported EC50 belonging to this compound: CC[C@]1(C(=O)O)CCCN(c2c(C(C)C)c(C)nc3c(F)c([C@H]4CC[C@H](C(F)(F)F)CC4)nn23)C1 (single isomer, unassigned)
1 to 10 nM
